The reported numbers originate from patent US20150031668A1.

target: human TRPM8 (Homo sapiens, UniProt Q7Z2W7); construct: expressed in transfected cells; host or cells: Chinese hamster ovary (CHO) cells, T-REx tetracycline-inducible expression system (Invitrogen); co-transfected with pcDNA3.1 aequorin; experiment: Luminescence readout assay for measuring intracellular calcium (aequorin, CHO cells expressing human TRPM8; icilin, L-menthol or cold activation); type: cell-based; conditions: CHO cells expressing human TRPM8, icilin activation (1 μM), aequorin luminescence; read-out: hTRPM8 IC50
Sequence (Q7Z2W7 whole entry): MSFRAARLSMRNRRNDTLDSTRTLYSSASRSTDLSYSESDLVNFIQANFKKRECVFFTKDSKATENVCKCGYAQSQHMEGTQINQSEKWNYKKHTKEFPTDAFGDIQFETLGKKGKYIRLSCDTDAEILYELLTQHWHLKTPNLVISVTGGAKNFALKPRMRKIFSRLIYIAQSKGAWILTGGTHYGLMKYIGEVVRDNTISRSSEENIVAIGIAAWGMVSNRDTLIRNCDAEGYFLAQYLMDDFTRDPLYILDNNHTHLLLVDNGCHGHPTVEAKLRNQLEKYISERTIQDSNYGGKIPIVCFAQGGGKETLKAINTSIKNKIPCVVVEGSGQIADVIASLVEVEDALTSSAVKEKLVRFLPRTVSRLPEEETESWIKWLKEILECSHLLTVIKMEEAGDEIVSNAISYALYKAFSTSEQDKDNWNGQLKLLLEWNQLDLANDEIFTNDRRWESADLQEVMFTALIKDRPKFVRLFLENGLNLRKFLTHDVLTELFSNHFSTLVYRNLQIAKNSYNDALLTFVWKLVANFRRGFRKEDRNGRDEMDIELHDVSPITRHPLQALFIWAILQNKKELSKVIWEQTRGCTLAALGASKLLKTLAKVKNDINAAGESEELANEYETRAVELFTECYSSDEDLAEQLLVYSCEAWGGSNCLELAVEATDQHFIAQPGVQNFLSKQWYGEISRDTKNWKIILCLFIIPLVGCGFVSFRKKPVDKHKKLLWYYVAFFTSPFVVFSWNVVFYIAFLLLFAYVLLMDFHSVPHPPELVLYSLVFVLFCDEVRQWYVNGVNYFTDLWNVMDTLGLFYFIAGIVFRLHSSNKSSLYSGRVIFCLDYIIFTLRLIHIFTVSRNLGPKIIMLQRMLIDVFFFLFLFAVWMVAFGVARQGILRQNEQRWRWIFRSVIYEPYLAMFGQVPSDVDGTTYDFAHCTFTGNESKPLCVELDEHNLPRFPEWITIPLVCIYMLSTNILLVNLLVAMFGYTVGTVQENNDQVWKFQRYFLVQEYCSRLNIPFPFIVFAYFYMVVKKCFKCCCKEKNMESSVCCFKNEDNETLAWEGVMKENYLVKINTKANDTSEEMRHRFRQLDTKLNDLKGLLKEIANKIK
Mark each entry Satisfied if its IC50 sits below 50 nM, and Not satisfied for all others.

O=C(O)c1ccc(C(=O)N[C@]2(c3ccc(OC(F)(F)F)c(F)c3)CCOc3cccnc32)nc1 [Example 75] = Satisfied
O=C(N[C@]1(c2ccc(Cl)cc2)CCOc2cccnc21)c1ccccc1 (single isomer, unassigned) [Example 14] = Not satisfied
COC(=O)c1ccc(S(=O)(=O)N[C@]2(c3ccc(OC(F)(F)F)c(F)c3)CCOc3cccnc32)cc1 [Example 286] = Not satisfied
O=C(NC1(c2ccccc2)CCOc2cccnc21)c1ccc(F)cc1 (stereo not drawn) [Example 11] = Not satisfied
O=C(N[C@]1(c2ccc(OC(F)(F)F)cc2)CCOc2cccnc21)c1ccc2cccnc2c1 [Example 254] = Satisfied

Let's switch to this molecule now.
Task: I'd appreciate it if you could check whether O=C(N[C@]1(c2ccc(C(F)(F)F)cc2)CCOc2cccnc21)c1ccncn1 [Example 35] has IC50 smaller than 50 nM.
Output: Not satisfied
